Target: Peroxisome proliferator-activated receptor alpha (Homo sapiens, UniProt Q07869)
Sequence (Q07869 whole entry): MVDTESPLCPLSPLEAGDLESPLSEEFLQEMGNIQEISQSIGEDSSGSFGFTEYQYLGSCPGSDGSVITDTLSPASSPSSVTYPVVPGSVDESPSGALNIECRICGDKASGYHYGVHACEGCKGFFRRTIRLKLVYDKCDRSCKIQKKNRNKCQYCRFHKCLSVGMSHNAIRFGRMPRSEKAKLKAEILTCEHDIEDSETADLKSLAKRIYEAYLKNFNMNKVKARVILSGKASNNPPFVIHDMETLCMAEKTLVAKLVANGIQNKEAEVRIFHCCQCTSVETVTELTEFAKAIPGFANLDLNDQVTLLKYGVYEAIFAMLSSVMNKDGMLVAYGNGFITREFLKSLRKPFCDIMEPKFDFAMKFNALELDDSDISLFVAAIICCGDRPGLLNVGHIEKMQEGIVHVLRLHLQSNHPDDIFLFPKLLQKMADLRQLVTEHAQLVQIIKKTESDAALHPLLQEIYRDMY
Test: Agonist activity at PPARalpha assessed as receptor transactivation by reporter gene assay
recordedEndpoint: pEC50
Just so you know, pEC50 here is -log10 of the concentration in molar units; reply with that number alone.

Please tell me: pEC50 of CCCc1nc2c(C)cccc2n1CCOc1ccc(CC(C)(Oc2ccccc2)C(=O)OCC)cc1 (stereo unspecified) , system Peroxisome proliferator-activated receptor alpha (Homo sapiens, UniProt Q07869)?
6.52

---

Biological target: Type-1 angiotensin II receptor A (Rattus norvegicus, UniProt P25095)
Sequence (P25095 whole entry): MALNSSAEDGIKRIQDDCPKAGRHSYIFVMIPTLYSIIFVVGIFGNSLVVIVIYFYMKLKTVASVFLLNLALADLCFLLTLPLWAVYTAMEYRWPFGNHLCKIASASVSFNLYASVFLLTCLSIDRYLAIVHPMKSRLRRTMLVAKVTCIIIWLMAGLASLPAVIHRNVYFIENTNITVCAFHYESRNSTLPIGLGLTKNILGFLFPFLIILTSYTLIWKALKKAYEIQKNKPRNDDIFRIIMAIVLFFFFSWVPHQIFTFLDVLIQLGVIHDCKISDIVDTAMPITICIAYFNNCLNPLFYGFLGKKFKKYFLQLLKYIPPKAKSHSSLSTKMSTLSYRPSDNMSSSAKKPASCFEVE
Experiment: Displacement of [125I]SI-Ang2 from AT1 receptor in Sprague-Dawley rat liver membrane
Assay type: cell membranes
recordedEndpoint: pKi
Just so you know, pKi here is -log10 of the concentration in molar units; reply with that number alone.

Example entries begin here.
{"compound": "CCCc1nc2c(C)cccc2n1Cc1ccc(OCc2nnn[nH]2)cc1", "pKi": 5.30}
{"compound": "CCCc1nc2c(C)cccc2n1Cc1ccc(CCc2nnn[nH]2)cc1", "pKi": 5.55}
{"compound": "CCCc1nc2c(C)cc(-c3nc4ccccc4n3C)cc2n1CCOc1ccc(CCc2nnn[nH]2)cc1", "pKi": 5.79}

Could you share which pKi value was measured for CCCc1nc2c(C)cc(-c3nc4ccccc4n3C)cc2n1CCOc1ccc(CC(C)(Oc2ccccc2)C(=O)OCC)cc1 (stereo unspecified) ?
5.60
